- Measured on: T1, BCMA on BCMA-positive multiple myeloma tumor lines RPMI-8226 and MM1.S (human, UniProt Q02223 1-184)
- T1 sequence (looked up): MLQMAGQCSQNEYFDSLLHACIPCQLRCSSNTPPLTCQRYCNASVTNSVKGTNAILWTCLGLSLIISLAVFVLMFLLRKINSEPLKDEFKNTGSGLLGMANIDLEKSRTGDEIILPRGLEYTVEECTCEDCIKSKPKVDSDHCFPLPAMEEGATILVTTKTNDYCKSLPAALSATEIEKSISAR
- Assay protocol: cell-based or functional assay
Quantity measured: tumor lysis of RPMI-8226-luc, luciferase-based killing assay, E:T 5

GET /values?readout=tumor lysis of RPMI-8226-luc, luciferase-based killing assay, E:T 5&item= BCMA CAR construct with ScFv sequence 39 (MTB-39) (other, not shown: large carriers) EVQLVESGGGVVQPGGSLRLSCAASGFTFSGYGMHWVRQAPGKGLEWVAFIRYDGSNKYYADSVKGRFTISRDNSKNTLYLQMNSLRAEDTAVYYCARDGARNDYWGQGTLVTVSSGGGGSGGGGSGGGGSNFMLTQPHSVSESPGKTVTISCTRSSGSIASNYVQWYQQRPGSAPTTVIYEDNQRPSGVPDRFSGSIDSSSNSASLTISGLKTEDEADYYCQTYDDNNHVIFGGGTQLTVLG
> 40%
